System: HS 578T breast
Experiment: NCI tumour cell line growth inhibition, 48 h
property label: TGI (µM)
Give just the number in µM; leave the unit off.

> print(dat)
                    structure.smiles.string  property.label  experimental.value
1  CN1CCN(C(=O)C(C)(C)c2ccc(C(=O)Nc3cn4cc(-c5ccncc5)ccc4n3)cc2)CC1             TGI                3.66

(Q) Using the record for `CCNCCCn1c2c(c3ccc(Cl)cc3c1=O)C(=O)c1cc(OC)cnc1-2` , state its measured TGI.
(A) 4.31

(Q) Using the record for `Cc1cc2c(C(C)C)c(O)c(O)cc2c(O)c1-c1c(C)cc2c(C(C)C)c(O)c(O)cc2c1O` , state its measured TGI.
(A) 47.6

(Q) Using the record for `O=C1/C(=C/c2ccccc2)CN(C(=O)CCN2CCOCC2)C/C1=C\c1ccccc1` , state its measured TGI.
(A) 13.1

(Q) Using the record for `O=[N+]([O-])c1ccc2sc(C=Nc3cnccn3)cc2c1` , state its measured TGI.
(A) 49.5

* * *

Tested on: UACC-62 melanoma
Assay: NCI tumour cell line growth inhibition, 48 h; in the data active means GI50 below about 0.43 µM; inactive means the rest
Pick one and only one: active, inactive

Please review the entries below; each comes with its answer.
compound	measured on	category label
C#CC#CC#CC#CC#CC#CC#CC#CCC1OCC(COC(=O)O[C@@H](C(=O)O[C@H]2C[C@@]3(O)[C@@H](OC(=O)c4ccccc4)[C@@H]4[C@]5(OC(C)=O)CO[C@@H]5C[C@H](O)[C@@]4(C)C(=O)[C@H](OC(C)=O)C(=C2C)C3(C)C)[C@@H](NC(=O)c2ccccc2)c2ccccc2)O1 (stereo partly drawn)	UACC-62 melanoma	inactive
Cc1ccccc1OCC(O)CN1CCN(c2ccc(Cl)cc2)CC1 (stereo not drawn)	UACC-62 melanoma	inactive
O=C(N/N=C/C=C/c1ccc([N+](=O)[O-])o1)c1cc2ccccc2cc1O	UACC-62 melanoma	inactive
COC1CC(O[C@H]2CC[C@@]3(C)[C@H](CC[C@@H]4[C@@H]3CC[C@]3(C)[C@@H](C5=CC(=O)OC5)[C@@H](OC(C)=O)C[C@]43O)C2)OC(C)C1O (stereo partly drawn)	UACC-62 melanoma	active
Cc1cc(NCCCN(C)C)c2ccc3c(ccc4c(NCCCN(C)C)cc(C)nc43)c2n1	UACC-62 melanoma	active
COc1ccc(C/C(C)=C(/c2ccc(OCCN3CCCCC3)cc2)c2ccc(OC(=O)NCc3ccccc3)cc2)cc1	UACC-62 melanoma	inactive

(Q) Each compound tested received a call. Report the one for `CCNCCCn1c2c(c3ccc(Cl)cc3c1=O)C(=O)c1cc(OC)cnc1-2` .
(A) inactive

(Q) Each compound tested received a call. Report the one for `COc1ccc2c(c1)c(CC(=O)[Se]C)c(C)n2C(=O)c1ccc(Cl)cc1` .
(A) inactive

* * *

Examples of compounds with documented TGI follow.
Tested on: SF-539 CNS
Test: NCI tumour cell line growth inhibition, 48 h

compound	measured on	TGI
OCC(O)C(O)C(O)C(O)c1nc2ccc(Cl)cc2[nH]1 (stereo unspecified)	SF-539 CNS	> 100 µM

(Q) Using the record for C[C@@H]1[C@H](C)N1CC(O)Cn1ccnc1[N+](=O)[O-] (stereo partly specified) , state its measured TGI.
(A) > 100 µM

(Q) Using the record for COc1ccc2c(c1)NC1=C(C(=O)OC1)C2c1cc(OC)c2c(c1)OCO2 (stereo unspecified) , state its measured TGI.
(A) > 83.2 µM

(Q) Using the record for O=C1NC(=O)C(C(CC(=O)c2ccc([N+](=O)[O-])cc2)c2ccccc2)C(=O)N1 (stereo unspecified) , state its measured TGI.
(A) > 100 µM

(Q) Using the record for `COc1c(O)c2c3c(cc(C)cc3c1C(C)C)OC2` , state its measured TGI.
(A) > 100 µM
